pIC50 values for the compounds below.
target: DDR1 kinase (Homo sapiens, UniProt Q08345); assay: Evaluation of DDR1 kinase inhibition (LANCE Ultra TR-FRET kinase assay); format: biochemical; set-up: purchased Carna Biosciences 08-113; details: DDR1 protein 0.5 nM, LANCE Ultra ULight-poly GAT substrate, 2 hours at room temperature, duplicate; read-out: DDR-1 IC50
Sequence (Q08345 19-876 isoform Q08345-2 limits assumed): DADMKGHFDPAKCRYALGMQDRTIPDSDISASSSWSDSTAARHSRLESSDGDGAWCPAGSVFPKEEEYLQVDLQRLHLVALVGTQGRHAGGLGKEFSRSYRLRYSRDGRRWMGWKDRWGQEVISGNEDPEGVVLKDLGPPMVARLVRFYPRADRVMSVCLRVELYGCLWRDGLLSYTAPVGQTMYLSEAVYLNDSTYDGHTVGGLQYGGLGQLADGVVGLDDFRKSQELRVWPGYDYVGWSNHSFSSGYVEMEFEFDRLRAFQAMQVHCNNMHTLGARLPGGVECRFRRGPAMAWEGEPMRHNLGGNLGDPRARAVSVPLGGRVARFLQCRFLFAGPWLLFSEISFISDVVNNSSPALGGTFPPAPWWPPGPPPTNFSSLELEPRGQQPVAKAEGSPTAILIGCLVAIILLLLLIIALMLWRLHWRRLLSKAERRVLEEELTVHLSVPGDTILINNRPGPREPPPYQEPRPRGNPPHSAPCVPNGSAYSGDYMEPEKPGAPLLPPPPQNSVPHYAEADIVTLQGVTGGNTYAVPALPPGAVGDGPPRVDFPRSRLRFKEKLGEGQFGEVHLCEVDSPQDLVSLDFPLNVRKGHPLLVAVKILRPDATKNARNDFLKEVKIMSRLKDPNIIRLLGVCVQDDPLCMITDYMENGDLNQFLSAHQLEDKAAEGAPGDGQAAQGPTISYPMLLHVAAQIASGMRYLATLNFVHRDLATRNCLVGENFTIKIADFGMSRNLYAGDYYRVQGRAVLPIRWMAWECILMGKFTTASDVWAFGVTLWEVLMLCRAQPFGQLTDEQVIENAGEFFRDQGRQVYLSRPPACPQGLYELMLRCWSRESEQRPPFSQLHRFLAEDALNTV
In plain terms, pIC50 is the concentration in mol/L turned into minus its base-10 logarithm.

Example entries and their recorded answers appear below.
{"columns": ["compound", "tested system", "pIC50"],
 "data": [
  ["Nc1cc(C(=O)N2CC(c3nn(CC4Cc5ccccc5C4)c4cc(F)cc(F)c34)C2)ccn1", "DDR1 kinase (Homo sapiens, UniProt Q08345)", 7.47],
  ["Nc1cc(C(=O)N2CC(c3nn(CC(=O)N4CCO[C@H](C(F)(F)F)C4)c4cc(F)cc(F)c34)C2)ccn1", "DDR1 kinase (Homo sapiens, UniProt Q08345)", 9.10],
  ["Cc1c(C(=O)N2CC(c3nn(CC(=O)N4CCC[C@H]4COC(F)(F)F)c4cncc(F)c34)C2)ccnc1N [Compound E-44, di-p-toluenesulfonate]", "DDR1 kinase (Homo sapiens, UniProt Q08345)", 8.04]
]}

Item Nc1cc(C(=O)N2CC(c3nn(CC(=O)NC4CCCC4(F)F)c4ccccc34)C2)ccn1 (stereo not shown) has what recorded pIC50?
7.77
